Reference source for all entries: patent US20220339143A1

# assay.protocol: Single dose PK in healthy subjects (Cohorts 1, 2, S1 and S2), plasma
# Type: in vivo, human
# assay.context: human, plasma, intravenous, 56 mg; 1 hr; read-out: Plasma concentration, Q1
parameter.measured: concentration at 1 h (µg/mL)
# number only, unit µg/mL dropped from output

Return reported concentration at 1 h; argument: "COC(=O)N1CCC[C@H](NS(C)(=O)=O)[C@@H]1CO[C@H]1CC[C@@H](c2ccccc2)CC1"
0.0762

====

# assay.protocol: Single dose PK in healthy subjects (Cohorts 1, 2, S1 and S2), plasma
# Assay type: in vivo, human
# assay.context: human, plasma, intravenous, 14 mg; 3 hr; read-out: Plasma concentration, Maximum
parameter.measured: concentration at 3 h (ng/mL)
// units = ng/mL; emit number, no label

Record request: concentration at 3 h value, item COC(=O)N1CCC[C@H](NS(C)(=O)=O)[C@@H]1CO[C@H]1CC[C@@H](c2ccccc2)CC1 [Compound A]
43.5
